- protocol summary: chemical genetic growth profiling, strain panel (AID 1159580);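 note: tested at 20 µM; growth read once vehicle control cultures reached saturation at 30 °C; 1 = growth at the plate median or of vehicle wells; lower values mean less growth of the strain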
- stated conditions: S. cerevisiae deletion strains, growth OD, locus YLR320W, strain mms22
The campaign covered roughly 5,500 compounds. About 2,000 (36%) were called active. About 18% were inconclusive and are not listed. Cut-off read from the data, not from the text of the source: active = normalized growth mostly below about 0.91 (no sharp cut-off); inconclusive = no clear call, values can overlap the other calls; inactive = mostly above about 0.92. This is one part of the list.
Classes used: active, inactive

- Cc1oncc1C(=O)Nc1ccc(C(F)(F)F)cc1: inactive
- CCCn1c(=O)c2[nH]c(C3CCCC3)nc2n(CCC)c1=O: inactive
- CC[C@@H]1OC(=O)C[C@@H](O)[C@H](C)[C@@H](O[C@@H]2O[C@H](C)[C@@H](O)[C@H](N(C)C)[C@H]2O)[C@@H](CCN2C[C@H](C)C[C@H](C)C2)C[C@@H](C)C(=O)/C=C/C(C)=C\[C@@H]1CO[C@@H]1O[C@H](C)[C@@H](O)[C@@H](OC)[C@H]1OC: inactive
- CN(C)CCC(c1ccccc1)c1ccccn1 (stereo not drawn): inactive
- CC(=O)N[C@@H](CCC(=O)O)C(=O)O: inactive
- COc1ccc2nc(S(=O)Cc3ncc(C)c(OC)c3C)[nH]c2c1 (stereo not drawn): active
- Fc1ccc([C@@H]2CCNC[C@H]2COc2ccc3c(c2)OCO3)cc1: inactive
- CC(=O)C1CC[C@H]2C3CC[C@H]4C[C@H](O)CC[C@]4(C)C3CC[C@]12C (stereo partly drawn): inactive
- Clc1ccccc1CN1CCc2sccc2C1: inactive
- C[C@@H]1CC[C@H]2C(C)(C)C3CC12CC[C@@]3(C)O (stereo partly drawn): active
- NC1(C(=O)O)CC1: inactive
- Cc1cc(/C=C/c2ccc3cc(N(C)C)ccc3[n+]2C)c(C)n1-c1ccccc1: active
- COP(=S)(OC)Oc1ccc([N+](=O)[O-])cc1: inactive
- CC12CCC3C(=CCc4cc(O)ccc43)C1CCC2=O (stereo not drawn): inactive
- CCCNC(=O)NS(=O)(=O)c1ccc(Cl)cc1: inactive
- Cc1onc(-c2ccccc2)c1-c1ccc(S(N)(=O)=O)cc1: inactive
- O=C(O)CCC1NCC2CC1CN1CCCCC21 (stereo not drawn): inactive
- CC(=O)Oc1c2c(c(CC=C(C)C)c3c1C(=O)C1=C[C@@H]4CC5C(C)(C)OC(C/C=C(\C)C(=O)O)(C4=O)[C@@]15O3)OC(C)(CCC=C(C)C)C=C2 (stereo partly drawn): active
- CC(=O)Oc1ccc2c(c1)CCC1C2CC[C@]2(C)C(=O)CCC12 (stereo partly drawn): inactive
- CC(=O)O[C@]1(C)CC[C@@]23CC1C(C)(C)[C@@H]2CC[C@H]3C: inactive
- Clc1ccc(C(c2ccccc2Cl)C(Cl)Cl)cc1 (stereo not drawn): inactive
- COc1cc(C)c2c(=O)cc(-c3ccccc3)oc2c1: active
- CC(=O)Oc1c2c(c3c(c1CC=C(C)C)O[C@]14C(=C[C@@H]5CC1C(C)(C)OC4(C/C=C(\C)C(=O)O)C5=O)C3=O)OC(C)(CCC=C(C)C)C=C2 (stereo partly drawn): inactive
- Oc1c(Cl)cc(Cl)c(Cl)c1Cc1c(O)c(Cl)cc(Cl)c1Cl: active
- Clc1ccc(CSC(Cn2ccnc2)c2ccc(Cl)cc2Cl)cc1 (stereo not drawn): active
- COc1ccnc(CS(=O)c2nc3ccc(OC(F)F)cc3[nH]2)c1OC (stereo not drawn): inactive
- C[C@]12CCC3c4ccc(O)cc4CCC3C1CCC2=O (stereo partly drawn): active
- C=CCS(=O)C[C@H](N)C(=O)O (stereo partly drawn): inactive
- COC(=O)[C@H](c1ccccc1Cl)N1CCc2sccc2C1: inactive
- COC(=O)/C(C)=C\CC12OC(C)(C)C3CC(C=C4C(=O)c5c(OC)c6c(c(CC=C(C)C)c5OC431)OC(C)(CCC=C(C)C)C=C6)C2=O (stereo not drawn): inactive
- COc1ccc(CCC(=O)c2c(O)cc(O[C@@H]3O[C@H](CO)C(O)[C@H](O)C3O[C@@H]3O[C@@H](C)[C@H](O)[C@@H](O)[C@H]3O)cc2O)cc1O (stereo partly drawn): inactive
- COC1C=CC23c4cc5c(cc4CN(CC2O)[C@@H]3C1)OCO5 (stereo partly drawn): inactive
- CN[C@@H]1C(OC2[C@H](O[C@H]3[C@H](O)[C@@H](O)[C@H](N=C(N)N)[C@@H](O)[C@@H]3N=C(N)N)OC(C)[C@]2(O)CO)OC(CO)C(O)C1O (stereo partly drawn): inactive
- Clc1ccc(C(Cn2ccnc2)OCc2ccsc2Cl)c(Cl)c1 (stereo not drawn): active
- CC(C)c1nc(N(C)S(C)(=O)=O)nc(-c2ccc(F)cc2)c1/C=C/[C@@H](O)C[C@@H](O)CC(=O)O: inactive
- Clc1ccc(COC(Cn2ccnc2)c2ccc(Cl)cc2Cl)c(Cl)c1 (stereo not drawn): active
- Clc1ccc(COC(Cn2ccnc2)c2ccc(Cl)cc2Cl)cc1 (stereo not drawn): active
- O=C1CCCN1CC#CCN1CCCC1: inactive
- NC(=O)NC1NC(=O)NC1=O (stereo not drawn): inactive
- NC1(C(=O)O)CCCC1: inactive
- CC(=O)C1CCC2C3CCC4C[C@H](O)CCC4(C)C3C[C@H](O)C12C (stereo partly drawn): inactive
- COP(=S)(OC)Oc1ccc(Sc2ccc(OP(=S)(OC)OC)cc2)cc1: inactive
- NC(N)=NCCN1CCCCCCC1: inactive

###

- protocol summary: chemical genetic growth profiling, strain panel (AID 1159580);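 note: tested at 20 µM; growth read once vehicle control cultures reached saturation at 30 °C; 1 = growth at the plate median or of vehicle wells; lower values mean less growth of the strain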
- stated conditions: S. cerevisiae deletion strains, growth OD, locus YKL193C, strain SDS22, active compounds read low
Among all 5,500 compounds or so, about 2,000 (36%) were called active. Inconclusive results (about 18%) are left out. The list shows a part of the results.
experimental endpoint: normalized growth

• O=C(Oc1ccc2ccccc2c1C1SCCS1)c1ccc([N+](=O)[O-])o1 = 0.952 (inactive)
• Cn1nccc1-c1cc(Cl)cc(Cl)c1O = 0.934 (inactive)
• O=C(Nc1ccncc1)c1cc(-c2ccccc2)oc1C(F)(F)F = 0.988 (inactive)
• Cc1cccc(N=NC(C(=O)C(F)(F)F)=C(O)c2cccs2)c1 = 0.991 (inactive)
• Clc1ccc(Oc2ccnc3cc(Cl)ccc23)cc1 = 0.911 (inactive)
• CNC(=O)Sc1c(-c2ccc(Cl)cc2)nn(C(=O)NC)c1SC = 0.97 (inactive)
• Cc1noc(C)c1S(=O)(=O)Nc1csc(C(F)(F)F)c1-c1ccccc1 = 0.976 (inactive)
• Nc1ccccc1C(=O)Nc1cc(C(F)(F)F)cc(C(F)(F)F)c1 = 0.955 (inactive)
• O=S(=O)(Nc1cc(Cl)c(Cl)cc1Cl)c1cc(C(F)(F)F)cc(C(F)(F)F)c1 = 0.963 (inactive)
• Cc1ccc(NC(=S)C(C#N)C(=O)N2CCOCC2)c(C)c1 (stereo not drawn) = 0.983 (inactive)
• Brc1ccc(-c2csc(-c3cccnc3)n2)cc1 = 0.864 (active)
• COc1ccc(-c2csc(-c3cccnc3)n2)cc1 = 0.948 (inactive)
• Cc1ccc(-c2nc(NS(=O)(=O)c3cccc4nonc34)sc2C)cc1Cl = 0.968 (inactive)
• N#CC(C#N)=Cc1c(-c2ccccc2Cl)[nH]c2ccccc12 = 0.967 (inactive)
• COc1ccc2c(c1)CCc1sc(NC(=O)c3ccco3)nc1-2 = 0.95 (inactive)
• FC(F)(F)c1cc(NC(=S)SCCSC(=S)Nc2cc(C(F)(F)F)cc(C(F)(F)F)c2)cc(C(F)(F)F)c1 = 0.992 (inactive)
• Clc1ccccc1-c1csc(-c2cccnc2)n1 = 0.88 (active)
• CC1C(c2ccccc2)N(C)C(c2ccccc2)CC1(O)c1ccc(F)cc1 (stereo not drawn) = 0.994 (inactive)
• C[C@@H](Nc1ncnc2sc3c(c12)CCCC3)c1ccccc1 = 0.953 (inactive)
• Clc1ccc(CSc2nccn2-c2cc(Cl)ccc2Cl)cc1 = 0.961 (inactive)
• O=[N+]([O-])c1ccsc1Oc1cccc(C(F)(F)F)c1 = 0.944 (inactive)
• O=S(=O)(NCc1cc(Cl)cc(Cl)c1)c1cc(C(F)(F)F)cc(C(F)(F)F)c1 = 0.998 (inactive)
• CC(C)(C)C1=C(C#N)C(c2c(Cl)cccc2Cl)C(C#N)=C(N)O1 (stereo not drawn) = 0.989 (inactive)

###

Below, each entry is listed alongside its reported normalized growth.
- protocol summary: chemical genetic growth profiling, strain panel (AID 1159580);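 note: tested at 20 µM; growth read once vehicle control cultures reached saturation at 30 °C; 1 = growth at the plate median or of vehicle wells; lower values mean less growth of the strain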
- stated conditions: S. cerevisiae deletion strains, growth OD, locus YPR106W, strain ISR1, active compounds read low
About 2,000 (36%) of roughly 5,500 compounds were called active. Not shown: some 18% with an inconclusive outcome. This is one part of the list.
experimental endpoint: normalized growth

• Clc1cccc(Nc2ncc(-c3ccc4c(c3)OCCCO4)s2)c1 = 0.971
• Nc1ccccc1C(=O)Nc1cc(C(F)(F)F)cc(C(F)(F)F)c1 = 0.934
• O=C(Nc1cc(C(F)(F)F)cc(C(F)(F)F)c1)C(Cl)(Cl)Cl = 0.958
• FC(F)(F)c1cc(NC(=S)SCCSC(=S)Nc2cc(C(F)(F)F)cc(C(F)(F)F)c2)cc(C(F)(F)F)c1 = 0.998
• Cn1nccc1-c1cc(Cl)cc(Cl)c1O = 0.948
• O=C(NNc1ccccc1)c1cc(-c2ccc(Cl)cc2)oc1C(F)(F)F = 0.933
• CC(C)(C)C1=C(C#N)C(c2c(Cl)cccc2Cl)C(C#N)=C(N)O1 (stereo unspecified) = 0.981
• Cc1ccc(NC(=S)C(C#N)C(=O)N2CCOCC2)c(C)c1 (stereo unspecified) = 1.01
• O=C(Nc1ccncc1)c1cc(-c2ccccc2)oc1C(F)(F)F = 0.979
• COc1ccc2c(c1)CCc1sc(NC(=O)c3ccco3)nc1-2 = 0.969
• C/C(=N/NC(=S)NCC(C)(C)C)c1cc(F)cc(Cl)c1O = 0.989
